Entries and their measured relative IC50 follow.
Tested on: ST8814
test_method_notes: relative IC50 (inflection point of fitted dose-response curve, CellTiter-Glo viability, 72 h; top asymptote may be below 50% inhibition); higher = less potent
Kindly answer with a numeric value in µM, unit omitted.

For orientation, consider the following solved cases.
[
  {
    "smiles_string": "CC/C(=C(\\c1ccccc1)c1ccc(OCCN(C)C)cc1)c1ccccc1",
    "unit_text": "µM",
    "relative IC50": 3.34
  },
  {
    "smiles_string": "CC(=O)O[C@@]12CO[C@@H]1C[C@H](O)[C@@]1(C)C(=O)[C@H](O)C3=C(C)[C@@H](OC(=O)[C@H](O)[C@@H](NC(=O)OC(C)(C)C)c4ccccc4)C[C@@](O)([C@@H](OC(=O)c4ccccc4)[C@H]21)C3(C)C",
    "unit_text": "µM",
    "relative IC50": 0.00395
  }
]

Field: next molecule
Query: Sample `CO[C@@]12[C@H](COC(N)=O)C3=C(C(=O)C(C)=C(N)C3=O)N1C[C@@H]1N[C@@H]12` — what was its relative IC50?
Result: 3.76
